Target: Mas-related G-protein coupled receptor member X2 (Homo sapiens)
Sequence (Q96LB1 whole entry): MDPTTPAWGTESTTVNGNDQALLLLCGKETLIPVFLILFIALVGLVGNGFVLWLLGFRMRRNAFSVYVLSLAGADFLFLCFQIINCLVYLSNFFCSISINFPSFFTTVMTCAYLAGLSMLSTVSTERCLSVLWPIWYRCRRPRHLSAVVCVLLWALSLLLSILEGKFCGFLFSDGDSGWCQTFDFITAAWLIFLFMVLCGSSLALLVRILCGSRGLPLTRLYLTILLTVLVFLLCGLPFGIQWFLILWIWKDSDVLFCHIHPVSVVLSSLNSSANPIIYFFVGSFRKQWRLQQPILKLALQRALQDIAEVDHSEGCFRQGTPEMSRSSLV
Test: MRGPRX2 Activity Assay
Procedure: FlpIn TRex-MRGPRX2-HEK293 cells (herein TRex-MRPGRX2-HEK) stably transfected to express human MRGPRX2 were maintained at 37 °C with 5% CO2 and grown in DMEM supplemented with 10% FBS, 1% L-Glutamate, 1% penicillin/streptomycin, 100ug/mL Hygromycin B, and 15 µg/mL Blasticidin. GOI (MRGPRX2) expression was induced with 100ng/mL of Doxycycline 18-24 hours prior to experiment, in flask. […] The plate was read on an EnVision XCite plate reader. […]
pIC50: −log10 of the molar value.
Please note: YES applies when pIC50 is 7 or greater, and NO applies otherwise.

Molecule	Tgt	Label Class
C[C@@H](C(=O)Nc1nc2cc3c(cc2s1)OC(F)(F)O3)N1CCC(F)(F)[C@@H](c2cc[n+]([O-])c([C@@H](O)CO)c2)C1 [WO2025064535, Compound 51]	Mas-related G-protein coupled receptor member X2 (Homo sapiens)	NO

Decide: pIC50 of C[C@@H](C(=O)Nc1nc2cc3c(cc2s1)OC(F)(F)O3)N1CCC(F)(F)[C@H](c2c[nH]c(=O)c([C@H](N)C(F)F)c2)C1 [WO2025064535, Compound 23] >= 7?
NO

Please indicate if the recorded pIC50 for C[C@@H](C(=O)Nc1nc2cc3c(cc2s1)OC(F)(F)O3)N1CCO[C@H](c2ccc(=O)[nH]c2)C1 [WO2025064535, Compound 4] meets or exceeds 7.
NO

Confirm if pIC50 reported for the molecule C[C@@H](C(=O)Nc1nc2cc3c(cc2s1)OC(F)(F)O3)N1CCC[C@H](c2cc[n+]([O-])cc2)C1 [WO2025064535, Compound 50] is 7 or above.
NO
